Target: T1, EsCas13d, nuclease-dead (Eubacterium siraeum, UniProt B0MS50, R295A;H300A;R849A;H854A)
T1 sequence: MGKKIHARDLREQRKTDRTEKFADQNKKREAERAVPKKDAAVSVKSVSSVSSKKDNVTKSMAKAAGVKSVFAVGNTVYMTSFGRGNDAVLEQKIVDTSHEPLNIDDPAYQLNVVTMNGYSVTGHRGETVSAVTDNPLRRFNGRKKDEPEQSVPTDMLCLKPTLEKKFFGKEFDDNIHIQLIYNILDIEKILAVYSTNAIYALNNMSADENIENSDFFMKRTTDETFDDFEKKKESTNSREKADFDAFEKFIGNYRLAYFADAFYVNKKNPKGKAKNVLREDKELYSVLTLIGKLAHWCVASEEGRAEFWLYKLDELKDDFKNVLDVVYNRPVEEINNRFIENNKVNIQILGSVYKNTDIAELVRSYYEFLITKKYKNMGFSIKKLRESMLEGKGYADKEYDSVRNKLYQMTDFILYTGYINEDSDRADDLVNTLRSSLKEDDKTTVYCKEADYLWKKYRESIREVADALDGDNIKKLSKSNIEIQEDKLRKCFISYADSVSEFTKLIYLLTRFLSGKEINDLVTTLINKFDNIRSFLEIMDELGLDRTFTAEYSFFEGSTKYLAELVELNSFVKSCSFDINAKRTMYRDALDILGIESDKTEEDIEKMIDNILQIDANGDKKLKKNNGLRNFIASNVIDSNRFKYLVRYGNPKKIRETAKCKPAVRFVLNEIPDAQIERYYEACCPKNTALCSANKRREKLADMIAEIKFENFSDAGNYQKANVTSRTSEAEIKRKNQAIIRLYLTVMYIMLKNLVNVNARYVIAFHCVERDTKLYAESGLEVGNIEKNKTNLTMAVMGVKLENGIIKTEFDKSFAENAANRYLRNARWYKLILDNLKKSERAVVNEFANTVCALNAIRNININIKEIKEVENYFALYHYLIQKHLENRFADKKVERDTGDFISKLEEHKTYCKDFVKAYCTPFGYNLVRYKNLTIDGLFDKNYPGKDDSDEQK
Assay: crRNA (strand 1, pre-loaded); Mg2+; 40 mM Tris-HCl pH 7.5, 150 mM NaCl, 6 mM MgCl2, 1 mM DTT, 0.1% Tween-20, 0.2 mg/ml BSA; 25 C; 10 min per concentration, then washed
Conditions: tags: His6-TwinStrep-SUMO cleaved; N-terminal SNAP kept (SNAP-Surface 488); label: 3' end held by stalled T7 RNA polymerase
Documented Kd across a set of binders

{"BINDER": "target 1 insC 3' of 19,insA 3' of 2 (mixed) RNA 1: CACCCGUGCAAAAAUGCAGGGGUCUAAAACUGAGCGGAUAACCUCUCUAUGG RNA 2: GGGAAUGGAUCCACAUCUACGAAUUCGUACCAUCAGAGAGGUUAUCCGCUCAACCGAGAUCGGAAGAGCACACGU", "Kd [nM]": 33.8}
{"BINDER": "target 1 insC 3' of 20,insC 3' of 5 (mixed) RNA 1: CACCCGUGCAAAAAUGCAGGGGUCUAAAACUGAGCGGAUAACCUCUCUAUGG RNA 2: GGGAAUGGAUCCACAUCUACGAAUUCGUACCACUAGAGAGGUUAUCCGCCUCACCGAGAUCGGAAGAGCACACGU", "Kd [nM]": 5.23}
{"BINDER": "target 1 insC 3' of 22,insU 3' of 20 (mixed) RNA 1: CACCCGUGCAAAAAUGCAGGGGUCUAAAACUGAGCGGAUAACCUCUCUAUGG RNA 2: GGGAAUGGAUCCACAUCUACGAAUUCGUACCCAUUAGAGAGGUUAUCCGCUCACCGAGAUCGGAAGAGCACACGU", "Kd [nM]": 18.3}
{"BINDER": "target 2 MT 5'PFS UGC 3'PFS GGC (mixed) RNA 1: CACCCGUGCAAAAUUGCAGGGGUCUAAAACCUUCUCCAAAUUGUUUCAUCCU RNA 2: GGGAAUGGAUCCACAUCUACGAAUUCUGCAGGAUGAAACAAUUUGGAGAAGGGCAGAUCGGAAGAGCACACGU", "Kd [nM]": 43}
{"BINDER": "target 1 C6G,A18C (mixed) RNA 1: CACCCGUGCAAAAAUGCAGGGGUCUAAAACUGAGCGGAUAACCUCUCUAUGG RNA 2: GGGAAUGGAUCCACAUCUACGAAUUCGUACCAUCGAGAGGUUAUCGGCUCACCGAGAUCGGAAGAGCACACGU", "Kd [nM]": 62}
{"BINDER": "target 1 insU 3' of 12,insU 3' of 5 (mixed) RNA 1: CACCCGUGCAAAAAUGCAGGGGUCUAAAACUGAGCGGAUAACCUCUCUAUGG RNA 2: GGGAAUGGAUCCACAUCUACGAAUUCGUACCAUAGAGAGGUUUAUCCGUCUCACCGAGAUCGGAAGAGCACACGU", "Kd [nM]": 11}
{"BINDER": "target 1 insG 3' of 11,insC 3' of 5 (mixed) RNA 1: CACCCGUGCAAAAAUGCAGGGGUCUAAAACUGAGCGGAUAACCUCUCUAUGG RNA 2: GGGAAUGGAUCCACAUCUACGAAUUCGUACCAUAGAGAGGUGUAUCCGCCUCACCGAGAUCGGAAGAGCACACGU", "Kd [nM]": 78}
{"BINDER": "target 2 MT 5'PFS CUC 3'PFS CAG (mixed) RNA 1: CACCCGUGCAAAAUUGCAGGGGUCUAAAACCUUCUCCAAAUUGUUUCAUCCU RNA 2: GGGAAUGGAUCCACAUCUACGAAUUCCUCAGGAUGAAACAAUUUGGAGAAGCAGAGAUCGGAAGAGCACACGU", "Kd [nM]": 1.93}
